pKi: −log10 of the molar value.
Endpoint: pKi. System: rat mGluR5 receptors (Rattus norvegicus). Items follow.
Sequence (P31424 21-1203): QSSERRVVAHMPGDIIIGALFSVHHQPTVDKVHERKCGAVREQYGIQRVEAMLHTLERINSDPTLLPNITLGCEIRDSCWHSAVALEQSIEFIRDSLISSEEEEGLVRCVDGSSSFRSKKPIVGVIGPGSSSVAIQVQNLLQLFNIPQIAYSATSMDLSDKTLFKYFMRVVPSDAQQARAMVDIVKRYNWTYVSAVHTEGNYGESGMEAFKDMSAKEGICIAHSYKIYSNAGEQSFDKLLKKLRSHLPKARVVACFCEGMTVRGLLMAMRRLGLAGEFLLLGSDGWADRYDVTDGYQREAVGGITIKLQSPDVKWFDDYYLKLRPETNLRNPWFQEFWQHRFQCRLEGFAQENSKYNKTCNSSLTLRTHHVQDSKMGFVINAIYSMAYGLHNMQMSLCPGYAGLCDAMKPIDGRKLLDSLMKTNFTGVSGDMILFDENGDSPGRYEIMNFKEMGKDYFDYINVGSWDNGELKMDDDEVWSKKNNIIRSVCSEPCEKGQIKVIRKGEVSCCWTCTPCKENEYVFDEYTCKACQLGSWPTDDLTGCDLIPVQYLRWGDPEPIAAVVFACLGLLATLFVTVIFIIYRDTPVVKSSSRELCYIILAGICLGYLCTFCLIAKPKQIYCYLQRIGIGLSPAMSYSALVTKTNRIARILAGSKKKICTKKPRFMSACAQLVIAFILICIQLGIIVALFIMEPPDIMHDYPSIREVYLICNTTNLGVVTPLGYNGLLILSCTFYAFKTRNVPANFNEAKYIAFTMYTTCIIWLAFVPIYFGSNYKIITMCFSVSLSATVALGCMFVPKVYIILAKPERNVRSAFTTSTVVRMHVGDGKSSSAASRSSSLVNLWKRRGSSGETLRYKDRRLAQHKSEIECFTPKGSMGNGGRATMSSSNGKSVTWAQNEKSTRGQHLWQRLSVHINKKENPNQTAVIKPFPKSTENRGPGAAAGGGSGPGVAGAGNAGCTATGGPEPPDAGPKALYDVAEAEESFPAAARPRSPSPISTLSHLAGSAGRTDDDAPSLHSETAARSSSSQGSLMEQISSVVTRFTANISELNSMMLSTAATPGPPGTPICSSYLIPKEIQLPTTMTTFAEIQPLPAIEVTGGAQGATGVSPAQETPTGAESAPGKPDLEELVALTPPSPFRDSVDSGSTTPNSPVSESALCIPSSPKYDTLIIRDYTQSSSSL

See these solved cases before continuing.
## Task Specify pKi for Cc1ccc2ncc(S(=O)(=O)c3ccc(C)c(F)c3)c(N3CCC(C)CC3)c2c1 [Compound 165] , system rat mGluR5 receptors (Rattus norvegicus).
## Result > 6.70

## Task Determine reported pKi for Cc1ccc(S(=O)(=O)c2cnc3ccc(C)cc3c2N2CCN(Cc3ccccc3)CC2)cc1 [Compound 65] ; test system: rat mGluR5 receptors (Rattus norvegicus).
## Result < 6.30

## Task With rat mGluR5 receptors (Rattus norvegicus) as the test system, provide measured pKi for this compound: O=S(=O)(c1cccc(F)c1)c1cnc2cc(Cl)ccc2c1N1CCOCC1 [Compound 325]
## Result < 6.30

## Task Write pKi of Cc1ccc2ncc(S(=O)(=O)c3ccc(Cl)c(Cl)c3)c(N3CCC(C)CC3)c2c1 [Compound 164] ; system used: rat mGluR5 receptors (Rattus norvegicus)
## Result > 6.70

## Task Report value: pKi, system: rat mGluR5 receptors (Rattus norvegicus), compound: COc1ccc2ncc(S(=O)(=O)c3cccc(Cl)c3)c(N3CCOCC3)c2c1 [Compound 274]
## Result < 6.30

## Task State measured pKi of the compound CC1CCN(c2c(S(=O)(=O)c3cc(Cl)cc(Cl)c3)cnc3cc(Cl)ccc23)CC1 [Compound 188] with rat mGluR5 receptors (Rattus norvegicus).
## Result > 6.70

## Task Write down the reported pKi (system: rat mGluR5 receptors (Rattus norvegicus)) of Cc1ccc(S(=O)(=O)c2cnc3cc(Cl)ccc3c2N2CCC(C)CC2)cc1 [Compound 191]
## Result > 6.70

## Task // output pKi; input Cc1ccc2ncc(S(=O)(=O)c3ccc(F)c(Cl)c3)c(N3CCC(C)CC3)c2c1 [Compound 169] ; system rat mGluR5 receptors (Rattus norvegicus)
## Result > 6.70

---
## Task For rat mGluR5 receptors (Rattus norvegicus), give the measured pKi of the entry Cc1ccc2ncc(S(=O)(=O)c3ccc(F)cc3)c(N3CCOCC3)c2c1 [Compound 257]
## Result < 6.30

## Task Find the measured pKi of COc1ccc(S(=O)(=O)c2cnc3ccc(OC)cc3c2N2CCC(C)CC2)cc1 [Compound 88] with rat mGluR5 receptors (Rattus norvegicus) as test system.
## Result < 6.30

## Task Given O=S(=O)(c1ccccc1)c1cnc2ccccc2c1N1CCN(Cc2ccccc2)CC1 [Compound 64] , report its pKi on rat mGluR5 receptors (Rattus norvegicus).
## Result < 6.30

## Task Lab note: record pKi of COc1ccc2ncc(S(=O)(=O)c3ccc(C)cc3)c(NCc3ccc(F)cc3)c2c1 [Compound 103] tested on rat mGluR5 receptors (Rattus norvegicus).
## Result < 6.30

## Task Provide pKi, recorded with rat mGluR5 receptors (Rattus norvegicus), of O=S(=O)(c1cc(F)cc(F)c1)c1cnc2cc(Cl)ccc2c1N1CCC(CO)CC1 [Compound 351]
## Result 6.30 to 6.70

###

ASSAY TARGET: rat mGluR5 receptors (Rattus norvegicus)
pKi: −log10 of the molar value.
OBSERVATION TYPE: pKi

Look over these answered cases.
## Task Give pKi; test system rat mGluR5 receptors (Rattus norvegicus); compound CC1CCN(c2c(S(=O)(=O)c3ccccc3)cnc3ccccc23)CC1
## Result > 6.70

## Task Give pKi for Cc1ccc2ncc(S(=O)(=O)c3ccc(C#N)cc3)c(N3CCOCC3)c2c1 tested on rat mGluR5 receptors (Rattus norvegicus).
## Result < 6.30

## Task // output pKi; input O=S(=O)(c1ccc(Cl)cc1)c1cnc2ccccc2c1N1CCCCCC1 ; system rat mGluR5 receptors (Rattus norvegicus)
## Result 6.30 to 6.70

## Task # return pKi for COc1cccc(S(=O)(=O)c2cnc3ccc(C)cc3c2N2CCOCC2)c1 , test system: rat mGluR5 receptors (Rattus norvegicus)
## Result 6.30 to 6.70

## Task Lab note: record pKi of CC1CCN(c2c(S(=O)(=O)c3ccc(Cl)cc3)cnc3cc(Cl)ccc23)CC1 tested on rat mGluR5 receptors (Rattus norvegicus).
## Result > 6.70

Continuing:
## Task Report value only: pKi, rat mGluR5 receptors (Rattus norvegicus), CC1CCN(c2c(S(=O)(=O)c3ccc(Cl)c(Cl)c3)cnc3c(F)cccc23)CC1
## Result > 6.70

## Task Name the value of pKi reported for CCOC(=O)C1CCCN(c2c(S(=O)(=O)c3ccc(C)cc3)cnc3ccccc23)C1 (centres unmarked) when tested on rat mGluR5 receptors (Rattus norvegicus).
## Result < 6.30

## Task Determine reported pKi for CC1CCN(c2c(S(=O)(=O)c3ccc(F)c(Cl)c3)cnc3cc(Cl)ccc23)CC1 ; test system: rat mGluR5 receptors (Rattus norvegicus).
## Result > 6.70

###

pKi: −log10 of the molar value.
Quick note: these are pKi numbers for system: rat mGluR5 receptors (Rattus norvegicus)

## Task Indicate the recorded pKi value for this molecule: Cc1ccc(S(=O)(=O)c2cnc3cc(F)ccc3c2N2CCC(C)CC2)cc1
## Result > 6.70

## Task Provide measured pKi value, entry: COc1ccc2ncc(S(=O)(=O)c3cccc(F)c3)c(N3CCC(C)CC3)c2c1
## Result 6.30 to 6.70

## Task Check the records and state pKi for COc1ccc(S(=O)(=O)c2cnc3cc(F)ccc3c2N2CCOCC2)cc1Cl
## Result 6.30 to 6.70

## Task Consider the molecule O=S(=O)(c1ccc(Cl)c(Cl)c1)c1cnc2c(F)cccc2c1N1CCOCC1 and give its recorded pKi.
## Result > 6.70

## Task Please give the documented pKi of O=S(=O)(c1ccccc1)c1cnc2cc(Cl)ccc2c1N1CCOCC1
## Result < 6.30

Could you now look at the following molecule, please?
## Task Specify reported pKi for the molecule shown: CCOC(=O)C1CCN(c2c(S(=O)(=O)c3ccc(C)cc3)cnc3ccc(CC)cc23)CC1
## Result < 6.30

###

rat mGluR5 receptors (Rattus norvegicus) Ki data

Please review the following examples before continuing.
## Task Consider the compound O=S(=O)(c1ccccc1)c1cnc2ccccc2c1Nc1ccccc1 tested on rat mGluR5 receptors (Rattus norvegicus); state its Ki.
## Result > 500 nM

## Task Consider the compound O=S(=O)(c1cc(Cl)cc(Cl)c1)c1cnc2c(F)cccc2c1N1CCOCC1 tested on rat mGluR5 receptors (Rattus norvegicus); state its Ki.
## Result 200 to 500 nM

## Task Answer briefly: Ki recorded on rat mGluR5 receptors (Rattus norvegicus) for Cc1ccc(S(=O)(=O)c2cnc3ccc(C)cc3c2N2CCCCC2)cc1
## Result > 500 nM

## Task Write down measured Ki (rat mGluR5 receptors (Rattus norvegicus)) for this compound. CC1CCN(c2c(S(=O)(=O)c3ccc(Cl)cc3)cnc3c(Cl)ccc(Cl)c23)CC1
## Result 200 to 500 nM

## Task GET Ki where system = rat mGluR5 receptors (Rattus norvegicus) and item = CCc1ccc2ncc(S(=O)(=O)c3ccc(C)cc3)c(N(CC)CC)c2c1
## Result > 500 nM

***
## Task Recall the reported Ki of COc1ccc2ncc(S(=O)(=O)c3ccccc3)c(N3CCN(Cc4ccccc4)CC3)c2c1 when tested on rat mGluR5 receptors (Rattus norvegicus).
## Result > 500 nM

## Task Report Ki from rat mGluR5 receptors (Rattus norvegicus) testing of CCN(CC)c1c(S(=O)(=O)c2ccc(Cl)cc2)cnc2ccc(C)cc12
## Result < 200 nM

## Task Please tell me the measured Ki for O=S(=O)(c1ccccc1)c1cnc2ccc(Cl)cc2c1N1CCCC1 ; system: rat mGluR5 receptors (Rattus norvegicus).
## Result > 500 nM

## Task Find the measured Ki of CC1CCN(c2c(S(=O)(=O)c3ccc(C#N)cc3)cnc3c(F)cccc23)CC1 with rat mGluR5 receptors (Rattus norvegicus) as test system.
## Result < 200 nM

###

Reported values: pKi for rat mGluR5 receptors (Rattus norvegicus), one per item.
pKi: −log10 of the molar value.

## Task Print rat mGluR5 receptors (Rattus norvegicus) pKi for CCOc1ccc2ncc(S(=O)(=O)c3ccc(Cl)cc3)c(NCc3ccc(F)cc3)c2c1 [Compound 16] .
## Result > 6.70

Others:
## Task Consider the compound O=S(=O)(c1ccc(F)c(Cl)c1)c1cnc2ccc(F)cc2c1N1CCOCC1 [Compound 290] tested on rat mGluR5 receptors (Rattus norvegicus); state its pKi.
## Result 6.30 to 6.70

## Task Recall the reported pKi of COc1ccc(S(=O)(=O)c2cnc3ccc(OC)cc3c2N2CCCCC2)cc1 [Compound 44] on rat mGluR5 receptors (Rattus norvegicus) and write it down.
## Result < 6.30

## Task // fetch pKi for Cc1ccc2ncc(S(=O)(=O)c3cccc(F)c3)c(N3CCC(C)CC3)c2c1 [Compound 159] ; system: rat mGluR5 receptors (Rattus norvegicus)
## Result > 6.70

## Task Determine reported pKi for O=S(=O)(c1ccc(Cl)cc1)c1cnc2ccccc2c1N1CCOCC1 [Compound 40] ; test system: rat mGluR5 receptors (Rattus norvegicus).
## Result < 6.30

## Task Enter pKi (test system rat mGluR5 receptors (Rattus norvegicus)) for Cc1ccc(S(=O)(=O)c2cnc3ccccc3c2N2CCC3(CC2)OCCO3)cc1 [Compound 97]
## Result < 6.30

## Task Supply pKi measured with rat mGluR5 receptors (Rattus norvegicus) for Cc1ccc(S(=O)(=O)c2cnc3cc(F)ccc3c2N2CCC(C)CC2)cc1Cl [Compound 181] .
## Result > 6.70

## Task State the measured pKi (rat mGluR5 receptors (Rattus norvegicus)) of CC1CCN(c2c(S(=O)(=O)c3ccc(Cl)c(Cl)c3)cnc3cc(Cl)ccc23)CC1 [Compound 202]
## Result > 6.70

Data provenance is patent US20090270371A1.
